These data points were gathered from patent US20250099420A1.

Biological target: GPR139 (Homo sapiens)
Sequence (Q6DWJ6 1-353): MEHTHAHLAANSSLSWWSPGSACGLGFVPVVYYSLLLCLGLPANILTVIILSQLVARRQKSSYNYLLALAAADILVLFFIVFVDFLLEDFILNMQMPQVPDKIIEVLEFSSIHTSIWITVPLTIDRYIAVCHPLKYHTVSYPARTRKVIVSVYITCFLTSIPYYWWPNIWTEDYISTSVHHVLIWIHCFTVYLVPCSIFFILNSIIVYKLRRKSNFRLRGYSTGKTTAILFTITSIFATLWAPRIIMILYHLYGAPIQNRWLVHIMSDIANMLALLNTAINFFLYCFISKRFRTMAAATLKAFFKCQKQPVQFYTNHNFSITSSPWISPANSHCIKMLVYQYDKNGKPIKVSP
Assay: GPR139 Agonist titration / agonist counterscreen assay (calcium detection, HEK-GPR139 cells)
Type: cell-based
Set-up: expressed in transfected cells; host or cells: HEK Aequorin cells, Maxcyte transient transfection
Details: GPR139 Agonist Activity; based on logD
# note: boundary value 5 maps to no (0); Lipophilic Efficiency (logD) below it maps to yes (1)

> print(dat)
                                    molecule    group
 1       O=C(CCC1CCCC1)NNC(=O)CSc1ccc(Cl)cc1  yes (1)
 2   Cc1ccc(NC(=O)Cn2ncc3c2-c2ccccc2OC3)cc1F  yes (1)
 3  O=C(CN1CCN(Cc2ccccc2Cl)C1=O)NCc1ccccc1Cl  yes (1)
 4  COc1ccc(OC)c(NC(=O)NNC(=O)C(C)Oc2ccc(Cl)cc2Cl)c1 (stereo not drawn)  yes (1)
 5  CCCn1c(CCC(=O)NCCc2ccc(OCC)cc2)nc2cccnc21  yes (1)
 6  COc1ccccc1NC(=O)NNC(=O)CSc1cc(C)c(Br)cc1C  yes (1)
 7      COc1ccc(CCNC(=O)COc2ccc(Cl)cc2Cl)cc1  yes (1)
 8  COc1ccc(C2(C)NC(=O)N(CC(=O)Nc3cc(C)ccc3C)C2=O)cc1 (stereo not drawn)   no (0)
 9  COc1ccc(C2(C)NC(=O)C(CC(=O)NCCc3ccccc3)C2=O)cc1 (stereo not drawn)   no (0)
10  CC(C(=O)NCCc1ccc(Cl)cc1)n1ncn2cccc2c1=O (stereo not drawn)   no (0)
11  CC(NC(=O)Cn1cc(NC(=O)c2ccccc2F)cn1)c1ccccc1Cl (stereo not drawn)  yes (1)
12          COc1ccc(CCNC(=O)Nc2ccc(C)cc2)cc1  yes (1)
13  O=C(CN1CCCN(Cc2ccc(F)cc2Cl)C1=O)NC1CCCCCC1  yes (1)
14      Cc1ccc(CCNC(=O)Cn2cc3c(n2)CCCCC3)cc1  yes (1)
15     O=C(CSCc1ccc(Cl)cc1Cl)NNC(=O)c1ccccc1   no (0)
16  COc1cc(OC)cc(-c2nnc(NC(=O)Cc3cccc4ccccc34)o2)c1  yes (1)
17  COCCn1c(C)c(C(=O)NC(C)CCc2ccccc2)c2nc3ccccc3nc21 (stereo not drawn)  yes (1)
18  CC(C)c1ccc(NC(=O)Cn2ncc3c2-c2ccccc2OC3)cc1  yes (1)
19  COc1ccc(NC(=O)NCC2CC(=O)N(c3ccccc3)C2)cc1 (stereo not drawn)   no (0)
20  CCc1cc(C2=C/C(=C/c3c(OC)ccc4ccccc34)C(=O)O2)cc(OC)c1OC  yes (1)
21  O=C(CCc1nc2cccnc2n1Cc1cccs1)NCc1ccc2c(c1)OCO2  yes (1)
22  O=C(NCC1Cc2cccc(-c3ccccn3)c2O1)c1ccc(-n2cccn2)cc1 (stereo not drawn)  yes (1)
23  CCCCn1c(C)c(N(CC)C(=O)C(C)(C)Oc2ccc(C)cc2)c(=O)[nH]c1=O   no (0)
24  O=C(CN1C(=O)NC2(CCc3ccccc3C2)C1=O)Nc1ccccc1Oc1ccccc1 (stereo not drawn)  yes (1)
25  CC(C(=O)NCCC1=CCCCC1)n1c(=O)c2cccn2c2ccccc21 (stereo not drawn)  yes (1)
26  COc1ccc(CCNC(=O)c2cncc(-c3csc4ccccc34)c2)cc1  yes (1)
27  Cc1ccc(Br)cc1S(=O)(=O)NCCC(=O)NCCc1sccc1C   no (0)
28  CC1(c2ccc(Cl)cc2)NC(=O)N(CC(=O)NCc2cccs2)C1=O (stereo not drawn)   no (0)
29  Cc1cccc(NC(=S)NNC(=O)CSCc2cccc3ccccc23)c1  yes (1)
30   COc1ccc(CCC(=O)Nc2ccc(/C(N)=N/O)cc2)cc1  yes (1)
31  CC(Oc1ccc(Cl)cc1Cl)C(=O)NNC(=O)c1ccncc1 (stereo not drawn)  yes (1)
32  CCCCCc1cc(C2=CCC=C2)ccc1CC(=O)C1CCc2ccccc2C1 (stereo not drawn)   no (0)

----------
Test system: parental HEK cells
Test: HEK parental Agonist Counterscreen Assay (non-transfected cells)
Assay type: cell-based
Conditions: HEK Agonist Activity section
reportedEndpoint: Lipophilic Efficiency (logD)

> print(dat)
                                    compound  reportedmeasurement
 1  Nc1c(Cl)c(Cl)nc(C(=O)OCC(=O)NCc2ccccc2)c1Cl                 2.07
 2  Cc1ccccc1CS(=O)(=O)CCC(=O)NC(C)c1ccccc1 (stereo not drawn)                 2.34
 3  COc1cc(-c2noc(CCC(=O)Nc3cccc(C)c3C)n2)cc(OC)c1OC                 0.80
 4  O=C(COc1ccc2ccccc2c1)NNC(=O)c1cccc([N+](=O)[O-])c1                 2.17
 5  CC1CC(C)CN(C(=O)C2C3C=CC4(CN(Cc5ccccc5Cl)C(=O)C24)O3)C1 (stereo not drawn)                 2.09
 6         O=C(CCc1ccccc1)Nc1nnc(Cc2cccs2)o1                 1.83
 7  CC(Oc1ccc(Cl)cc1Cl)C(=O)NNC(=O)c1ccc(F)cc1 (stereo not drawn)                 1.26
 8  CC(CCC(=O)C12CC3CC(CC(C3)C1)C2)CCc1ccc2ccccc2c1 (stereo not drawn)                 1.36
 9  CC(C)(C)c1cn2cccc(OCc3ccc(Cl)c(Cl)c3)c2n1               −0.610
10  COc1ccc2cc(C3(C)CC(=O)N(CC(=O)N(CC(C)C)CC(C)C)C3=O)ccc2c1 (stereo not drawn)                 1.27
11       Cc1c(C=O)c2ccccc2n1CC(=O)NCc1ccccc1                 2.02
12  O=C(COc1ccc2ccccc2c1)NNC(=O)Cc1cccc2ccccc12                 1.14
13       COc1ccc(SCC(=O)NNC(=S)Nc2ccccc2)cc1                 1.85
14  COc1cc(C(=O)NNC(=O)C(C)Oc2ccc(Cl)cc2Cl)cc(OC)c1OC (stereo not drawn)                 1.84
15  CCN(Cc1ccccc1)C(=O)Cn1cnc2sc(O)c(C)c2c1=O                 1.48
16  Cc1c(Cl)c(C(F)(F)F)nn1CC(=O)NCc1ccc(Cl)cc1                 1.05
17  CC1C(CC(=O)NCC(=O)CCC2=Cc3ccccc3C2)=Nc2ccccc21 (stereo not drawn)                 2.46
18  CC(C)c1ccc(NC(=O)Cn2ncc3c2-c2ccccc2OC3)cc1                 1.13

----------
Target: GPR139 (Homo sapiens)
Experiment: GPR139 Agonist titration / agonist counterscreen assay (calcium detection, HEK-GPR139 cells)
Assay type: cell-based
Parameters: expressed in transfected cells; host or cells: HEK Aequorin cells, Maxcyte transient transfection
Details: GPR139 Agonist Activity; activity relative to known control
reportedEndpoint: Averaged Max % Response (±St. Dev.) (%)

> print(dat)
                                    compound             measuredon                     reportedendpoint  reportedmeasurement
 1  CN1CC[C@H](Oc2cc(-c3cn[nH]c3)ccc2NC(=O)N(Cc2ccccc2)C2CC2)C1.O=C(O)C(F)(F)F.O=C(O)C(F)(F)F  GPR139 (Homo sapiens)  Averaged Max % Response (±St. Dev.)                91.59
 2  Cc1cc(C(=O)CCC(=O)NNC(=O)CSc2nc3ccccc3s2)c(C)s1  GPR139 (Homo sapiens)  Averaged Max % Response (±St. Dev.)               126.06
 3             O=C(O)COc1cc(Br)c(Br)c(Br)c1O  GPR139 (Homo sapiens)  Averaged Max % Response (±St. Dev.)                88.05
 4  COC(=O)c1ccc(NC(=O)CNC(=O)C2CCCCC2)c(C)c1  GPR139 (Homo sapiens)  Averaged Max % Response (±St. Dev.)                77.11
 5  Cc1ccc(Br)cc1S(=O)(=O)NCCC(=O)NCCc1sccc1C  GPR139 (Homo sapiens)  Averaged Max % Response (±St. Dev.)               102.96
 6  COc1ccc2cc(C3(C)CC(=O)N(CC(=O)N(CC(C)C)CC(C)C)C3=O)ccc2c1 (stereo not shown)  GPR139 (Homo sapiens)  Averaged Max % Response (±St. Dev.)                79.59
 7  CCN(Cc1ccccc1)C(=O)Cn1cnc2sc(O)c(C)c2c1=O  GPR139 (Homo sapiens)  Averaged Max % Response (±St. Dev.)               109.12
 8  COc1ccc(NC(=O)NCC2CC(=O)N(c3ccccc3)C2)cc1 (stereo not shown)  GPR139 (Homo sapiens)  Averaged Max % Response (±St. Dev.)               103.55
 9  Cc1cccnc1CNC(=O)CCC1(Cc2cccc3ccccc23)CCC(=O)N1 (stereo not shown)  GPR139 (Homo sapiens)  Averaged Max % Response (±St. Dev.)               124.78
10  CSc1cccc(NC(=O)C2C3C=CC4(O3)C2C(=O)N(C(C)c2ccccc2)C4C(=O)NC2CCCC(C)C2C)c1 (stereo not shown)  GPR139 (Homo sapiens)  Averaged Max % Response (±St. Dev.)               103.05
11  O=C(Nc1ccc(-c2cn[nH]c2)cc1OCCN1CCCC1)C1COc2ccc(F)cc2C1.O=C(O)C(F)(F)F.O=C(O)C(F)(F)F (stereo not shown)  GPR139 (Homo sapiens)  Averaged Max % Response (±St. Dev.)               116.35
12   Cc1ccc(SCC(=O)Nc2nnc(-c3ccccc3Cl)o2)cc1  GPR139 (Homo sapiens)  Averaged Max % Response (±St. Dev.)               122.23
13  CCCc1ccccc1C1=CCC(NC(=O)Cn2ncc3c2-c2ccccc2CC3)=C1  GPR139 (Homo sapiens)  Averaged Max % Response (±St. Dev.)                95.23
14  Cc1cc(C(=O)NNC(=O)CNC(=O)Cc2cccc3ccccc23)c(C)o1  GPR139 (Homo sapiens)  Averaged Max % Response (±St. Dev.)               119.00
15  COc1ccc(CC(=O)NNC(=O)C(C)Oc2ccc(Cl)cc2Cl)cc1 (stereo not shown)  GPR139 (Homo sapiens)  Averaged Max % Response (±St. Dev.)                89.14
16  C=C(CC1C(=O)CC(c2ccccc2)(c2ccccc2)C1=O)C(C)CC1=CC=CC1 (stereo not shown)  GPR139 (Homo sapiens)  Averaged Max % Response (±St. Dev.)               121.63
17  CCn1c(=O)n(CC(=O)NCC2COc3ccccc3O2)c(=O)c2ccccc21 (stereo not shown)  GPR139 (Homo sapiens)  Averaged Max % Response (±St. Dev.)                90.30
18  O=C(Cc1ccccc1)CC1C=CC2=C1c1ccccc1CC2 (stereo not shown)  GPR139 (Homo sapiens)  Averaged Max % Response (±St. Dev.)               109.36
19  CC(NC(=O)Cn1ncc2ccccc21)c1ccc2c(c1)OCCO2 (stereo not shown)  GPR139 (Homo sapiens)  Averaged Max % Response (±St. Dev.)                85.23
20  Cc1ccc2c(CC(=O)NNC(=O)CC34CC5CC(CC(C5)C3)C4)coc2c1  GPR139 (Homo sapiens)  Averaged Max % Response (±St. Dev.)                93.14
21  CCn1c(C)nc2cc(C(=O)NNC(=O)Cc3cccc4ccccc34)ccc21  GPR139 (Homo sapiens)  Averaged Max % Response (±St. Dev.)                94.48
22  CC(CCc1ccccc1)NC(=O)Cn1cc2c(n1)CCCC2 (stereo not shown)  GPR139 (Homo sapiens)  Averaged Max % Response (±St. Dev.)               160.07
23  CC(C)CCNC(=O)C1C2C=CC3(CN(Cc4ccccc4Cl)C(=O)C13)O2 (stereo not shown)  GPR139 (Homo sapiens)  Averaged Max % Response (±St. Dev.)               119.91
24         O=C(CCc1ccccc1)Nc1nnc(Cc2cccs2)o1  GPR139 (Homo sapiens)  Averaged Max % Response (±St. Dev.)                83.52
25  C=C(CCC)c1ccc(CCC2=NNC(c3ccccc3)N2C)cc1 (stereo not shown)  GPR139 (Homo sapiens)  Averaged Max % Response (±St. Dev.)                71.34
